These data points were gathered from patent US20200199204A1.

# maps each entry to its neutralization IC50
# System Name: HIV-1 Env of Q259.d2.17 (HIV-1)
# Measurement Description: cell-based or functional assay
Expressed in µg/mL, but write only the number.

Examples with answers:
binder="CAP256-VRC26.07 (antibody, V domains shown) VH: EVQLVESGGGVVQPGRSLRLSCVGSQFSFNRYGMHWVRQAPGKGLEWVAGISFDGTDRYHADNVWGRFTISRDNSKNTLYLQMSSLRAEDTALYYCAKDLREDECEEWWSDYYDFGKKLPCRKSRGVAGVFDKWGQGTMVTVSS VL: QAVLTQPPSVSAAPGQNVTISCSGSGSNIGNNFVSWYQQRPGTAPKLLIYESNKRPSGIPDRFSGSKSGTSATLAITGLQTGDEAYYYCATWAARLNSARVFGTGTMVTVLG" unit_abbreviation=µg/mL measured=42.5
binder="CAP256-VRC26.09 (antibody, V domains shown) VH: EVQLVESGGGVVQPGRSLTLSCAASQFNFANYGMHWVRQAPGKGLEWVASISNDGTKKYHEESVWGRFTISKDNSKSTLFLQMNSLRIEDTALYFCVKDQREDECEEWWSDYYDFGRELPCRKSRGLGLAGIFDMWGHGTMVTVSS VL: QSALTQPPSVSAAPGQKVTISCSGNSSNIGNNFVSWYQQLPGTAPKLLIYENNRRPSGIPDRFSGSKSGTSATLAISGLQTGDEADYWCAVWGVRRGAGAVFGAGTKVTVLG" unit_abbreviation=µg/mL measured=0.008
binder="CAP256-VRC26.03 (antibody, V domains shown) VH: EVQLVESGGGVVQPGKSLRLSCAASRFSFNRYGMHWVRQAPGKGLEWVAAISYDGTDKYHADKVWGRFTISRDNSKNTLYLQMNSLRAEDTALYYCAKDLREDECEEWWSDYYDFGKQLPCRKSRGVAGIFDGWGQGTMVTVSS VL: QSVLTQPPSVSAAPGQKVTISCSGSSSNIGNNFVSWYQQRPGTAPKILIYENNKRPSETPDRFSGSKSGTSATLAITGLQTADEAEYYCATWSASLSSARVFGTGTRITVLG" unit_abbreviation=µg/mL measured=0.014

Ask: # lookup: neutralization IC50 of CAP256-VRC26.04 (antibody, V domains shown) VH: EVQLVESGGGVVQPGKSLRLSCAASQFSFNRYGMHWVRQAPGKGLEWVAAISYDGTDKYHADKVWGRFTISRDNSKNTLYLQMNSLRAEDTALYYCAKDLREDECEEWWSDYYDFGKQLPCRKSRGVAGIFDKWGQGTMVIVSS VL: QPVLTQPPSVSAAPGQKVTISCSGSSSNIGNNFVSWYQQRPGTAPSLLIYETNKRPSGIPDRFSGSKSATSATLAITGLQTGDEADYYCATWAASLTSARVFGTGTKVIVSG
Result: 0.025

Ask: # lookup: neutralization IC50 of CAP256-VRC26.08 (antibody, V domains shown) VH: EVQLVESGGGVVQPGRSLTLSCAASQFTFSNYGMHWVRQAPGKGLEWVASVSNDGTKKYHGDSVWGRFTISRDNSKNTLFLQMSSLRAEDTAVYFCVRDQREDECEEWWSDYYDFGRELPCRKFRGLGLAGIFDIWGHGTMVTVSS VL: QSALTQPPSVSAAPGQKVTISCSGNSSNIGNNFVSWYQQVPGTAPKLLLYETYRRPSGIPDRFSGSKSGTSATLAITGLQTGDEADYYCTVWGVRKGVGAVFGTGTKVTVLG
Result: 0.009
